test system: OVCAR-4; test: Cytotoxicity against human OVCAR4 cells assessed as growth inhibition after 48 hrs by sulforhodamine B assay; type: functional; settings: OVCAR-4, 48 h
# TGI annotations
Lab book: enter the figure in µM, no units written.

{"chemical structure": "COc1ccc(C(=O)/C=C/c2cc(-c3ccc(OC)c(OC)c3)n[nH]2)cc1OC", "TGI, µM": 8.15}
{"chemical structure": "COc1ccc(C(=O)/C=C/c2cc(-c3cc(OC)c(OC)c(OC)c3)n[nH]2)cc1OC", "TGI, µM": 16.6}

Query block: Input COc1ccc(-c2cc(/C=C/C(=O)c3ccc(N)cc3)[nH]n2)cc1 , output reported TGI.
Result block: 8.01

Query block: Consider the molecule COc1cc(C(=O)/C=C/c2cc(-c3ccc4c(c3)OCO4)n[nH]2)cc(OC)c1OC and give its recorded TGI.
Result block: 4.24

Query block: Tell us which TGI value is on record for COc1cc(-c2cc(/C=C/C(=O)c3ccc(N)cc3)[nH]n2)cc(OC)c1OC
Result block: 5.44
